target: human α2β2γ1 complex (WT) (Homo sapiens, UniProt P54619+P54646); construct: made in house; host or cells: Escherichia coli; test: Allosteric activation of WT human α2β2γ1 AMPK complex by AMP and ADP; type: biochemical; settings: 5.0 mM ATP, read-out: EC50
Sequence (P54619 whole entry, one chain of several): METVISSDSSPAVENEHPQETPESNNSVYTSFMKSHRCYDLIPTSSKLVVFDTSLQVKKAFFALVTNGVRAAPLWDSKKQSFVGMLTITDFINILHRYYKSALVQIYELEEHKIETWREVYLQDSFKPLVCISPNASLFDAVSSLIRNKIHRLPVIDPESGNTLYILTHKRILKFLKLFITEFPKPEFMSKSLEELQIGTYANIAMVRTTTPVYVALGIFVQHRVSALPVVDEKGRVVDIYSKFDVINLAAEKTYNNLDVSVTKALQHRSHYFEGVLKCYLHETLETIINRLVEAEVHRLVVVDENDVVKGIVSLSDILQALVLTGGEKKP
# maps each entry to its pEC50
Just the number, please; pEC50 means minus log10 of the concentration in mol/L.

cpd_smiles=Nc1ncnc2c1ncn2[C@@H]1O[C@H](COP(=O)(O)O)[C@@H](O)[C@H]1O measurement_target="human α2β2γ1 complex (WT) (Homo sapiens, UniProt P54619+P54646)" value_reported=4.72

We next turn to a different molecule, shown below.
Exam item: Hi! What's the reported pEC50 for Nc1ncnc2c1ncn2[C@@H]1O[C@H](COP(=O)(O)OP(=O)(O)O)[C@@H](O)[C@H]1O on human α2β2γ1 complex (WT) (Homo sapiens, UniProt P54619+P54646)?
Marked response: 3.11

====

# maps each entry to its pIC50
molecular target: rat liver AMPK; assay: Allosteric activation and inhibition of native rat liver AMPK by AMP and ADP (SAMS peptide kinase assay); type: biochemical; details: rat liver AMPK, 0.2 mM ATP
Just the number, please; pIC50 means minus log10 of the concentration in mol/L.

Exam item: Hi! What's the reported pIC50 for Nc1ncnc2c1ncn2[C@@H]1O[C@H](COP(=O)(O)OP(=O)(O)O)[C@@H](O)[C@H]1O on rat liver AMPK?
Marked response: 3.40

Exam item: Hi! What's the reported pIC50 for Nc1ncnc2c1ncn2[C@@H]1O[C@H](COP(=O)(O)O)[C@@H](O)[C@H]1O on rat liver AMPK?
Marked response: 2.77

====

target: human α2β2γ1 complex, CBS3 mutant (V276G/L277G) (Homo sapiens, UniProt P54619+P54646, L277G/V276G); construct: made in house; host or cells: Escherichia coli; assay: Allosteric activation of CBS3 mutant human α2β2γ1 AMPK complex; type: biochemical; conditions: α2β2γ1 CBS3 mutant, 5.0 mM ATP
Sequence (P54619 whole entry V276G/L277G): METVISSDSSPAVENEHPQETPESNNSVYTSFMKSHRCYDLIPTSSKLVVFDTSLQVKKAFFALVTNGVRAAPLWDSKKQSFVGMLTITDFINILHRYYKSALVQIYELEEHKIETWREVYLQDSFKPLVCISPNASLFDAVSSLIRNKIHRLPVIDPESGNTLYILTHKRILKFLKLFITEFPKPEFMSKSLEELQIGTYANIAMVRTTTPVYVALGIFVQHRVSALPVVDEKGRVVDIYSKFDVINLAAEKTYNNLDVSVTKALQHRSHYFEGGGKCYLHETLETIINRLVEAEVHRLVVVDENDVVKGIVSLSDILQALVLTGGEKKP
Sequence (P54646 whole entry): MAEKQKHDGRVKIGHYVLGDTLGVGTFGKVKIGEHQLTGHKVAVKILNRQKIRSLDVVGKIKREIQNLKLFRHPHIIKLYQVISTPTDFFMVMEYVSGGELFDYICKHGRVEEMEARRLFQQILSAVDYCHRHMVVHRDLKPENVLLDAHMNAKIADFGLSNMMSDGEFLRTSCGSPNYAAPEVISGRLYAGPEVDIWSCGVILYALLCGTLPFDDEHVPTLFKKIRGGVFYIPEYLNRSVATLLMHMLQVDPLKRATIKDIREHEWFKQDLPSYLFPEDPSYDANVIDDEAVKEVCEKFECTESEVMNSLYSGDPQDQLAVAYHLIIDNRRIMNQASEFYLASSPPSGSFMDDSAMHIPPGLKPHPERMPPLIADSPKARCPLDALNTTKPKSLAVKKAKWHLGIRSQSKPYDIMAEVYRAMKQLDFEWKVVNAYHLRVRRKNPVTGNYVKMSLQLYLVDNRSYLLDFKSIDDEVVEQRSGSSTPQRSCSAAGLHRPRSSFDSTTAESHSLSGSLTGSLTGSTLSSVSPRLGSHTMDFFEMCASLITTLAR
Sequence (O43741 whole entry partner): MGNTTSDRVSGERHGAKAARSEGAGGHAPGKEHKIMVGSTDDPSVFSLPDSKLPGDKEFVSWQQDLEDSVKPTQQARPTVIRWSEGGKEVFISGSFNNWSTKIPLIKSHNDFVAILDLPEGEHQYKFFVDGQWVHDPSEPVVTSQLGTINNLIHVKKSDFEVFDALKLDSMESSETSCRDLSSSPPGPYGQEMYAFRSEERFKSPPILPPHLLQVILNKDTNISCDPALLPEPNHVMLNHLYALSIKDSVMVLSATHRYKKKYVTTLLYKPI
# maps each entry to its IC50
Your answer should be a plain number; it is taken to be in mM.

Exam item: Query (compound): Nc1ncnc2c1ncn2[C@@H]1O[C@H](COP(=O)(O)OP(=O)(O)O)[C@@H](O)[C@H]1O [ADP] ; field requested: IC50
Marked response: 7.6

Exam item: Query (compound): Nc1ncnc2c1ncn2[C@@H]1O[C@H](COP(=O)(O)O)[C@@H](O)[C@H]1O [AMP] ; field requested: IC50
Marked response: 40

====

molecular target: rat liver AMPK; assay: Allosteric activation and inhibition of native rat liver AMPK by AMP and ADP (SAMS peptide kinase assay); assay type: biochemical; details: rat liver AMPK, 0.2 mM ATP
value_kind: EC50 (µM)
Your answer should be a plain number; it is taken to be in µM.

Exam item: Hi! What's the reported EC50 for Nc1ncnc2c1ncn2[C@@H]1O[C@H](COP(=O)(O)O)[C@@H](O)[C@H]1O on rat liver AMPK?
Marked response: 6.4

====

biological target: human α2β2γ1 complex, CBS3 mutant (V276G/L277G) (Homo sapiens, UniProt P54619+P54646, L277G/V276G); construct: made in house; host or cells: Escherichia coli; experiment: Allosteric activation of CBS3 mutant human α2β2γ1 AMPK complex; format: biochemical; settings: α2β2γ1 CBS3 mutant, 5.0 mM ATP
value_kind: pEC50
Just the number, please; pEC50 means minus log10 of the concentration in mol/L.

Exam item: Query (compound): Nc1ncnc2c1ncn2[C@@H]1O[C@H](COP(=O)(O)O)[C@@H](O)[C@H]1O ; field requested: pEC50
Marked response: 3.43
